# target-under-test: T1, MPDZ_10, O75970
# T1 sequence (O75970 1624-1722, limits assumed, looked up): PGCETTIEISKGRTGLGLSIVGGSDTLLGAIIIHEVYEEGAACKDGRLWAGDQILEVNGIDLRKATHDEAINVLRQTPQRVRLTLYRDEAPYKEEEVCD
# method-summary: holdup assay
# Design: key: below the threshold = too weak to quantify, mostly under pKd 3.1 to 4
# particulars: plain residues with an end cap or a label only (N-terminal biotin on a linker: ttds)
endpoint-name: pKd

[
  {
    "binder": "VNKVWDQSSV [CIT, O14578]",
    "assay-result": "below the threshold"
  },
  {
    "binder": "QFQYAKESYI [TAGAP, Q8N103]",
    "assay-result": "below the threshold"
  },
  {
    "binder": "LCALPKVTTV [AGMAT, Q9BSE5]",
    "assay-result": 4.14
  },
  {
    "binder": "RTRQRNETQV [HPV51-E6, P26554]",
    "assay-result": "below the threshold"
  },
  {
    "binder": "DPRNTQTSQI [ABRAXAS2, Q15018]",
    "assay-result": "below the threshold"
  },
  {
    "binder": "PKRPFVESNV [TANC2, Q9HCD6]",
    "assay-result": 3.51
  }
]

Could you now consider this next binder?
Dear colleague, please send me the reported pKd for DPLTPSRSQL [DGKK, Q5KSL6] when you can.
below the threshold

Value source: paper PMC9482650
